Each recorded value in this set is attributed to patent US20110217237A1.

Biological target: T1, mouse DLL4 extracellular domain (mouse, UniProt Q9JI71 27-532)
T1 construct: extracellular domain; also called muDLL4 ECD; murine DLL4
T1 sequence (Q9JI71 27-532): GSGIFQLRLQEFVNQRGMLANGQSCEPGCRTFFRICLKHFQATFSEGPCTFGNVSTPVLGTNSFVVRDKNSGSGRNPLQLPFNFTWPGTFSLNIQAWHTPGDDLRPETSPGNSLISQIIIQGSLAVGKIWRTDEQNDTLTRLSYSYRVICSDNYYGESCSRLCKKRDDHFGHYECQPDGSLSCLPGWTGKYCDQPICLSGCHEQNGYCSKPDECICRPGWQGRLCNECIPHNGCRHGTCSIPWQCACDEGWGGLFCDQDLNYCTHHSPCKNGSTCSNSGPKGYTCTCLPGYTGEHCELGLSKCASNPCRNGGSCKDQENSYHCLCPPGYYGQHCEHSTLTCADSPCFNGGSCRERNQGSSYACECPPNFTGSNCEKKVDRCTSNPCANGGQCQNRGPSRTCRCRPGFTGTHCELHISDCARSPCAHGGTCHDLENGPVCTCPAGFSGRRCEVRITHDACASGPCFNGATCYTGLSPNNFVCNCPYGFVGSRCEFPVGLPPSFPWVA
Test: SPR (Biacore)
Lab note - cut at 70000 M⁻¹ s⁻¹ for kon: t if strictly below, f if not.

Some solved cases for reference:
BINDER | CLASSIFICATION
37D10 rat anti-DLL4 monoclonal antibody (antibody, rat IgG2a, V domains shown, rat IgG2a/k hybridoma mAb; also called 40B10; 37D10 = 40B10) VH: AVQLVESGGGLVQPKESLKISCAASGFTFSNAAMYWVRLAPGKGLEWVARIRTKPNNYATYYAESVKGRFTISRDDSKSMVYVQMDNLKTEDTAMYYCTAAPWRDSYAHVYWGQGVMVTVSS VL: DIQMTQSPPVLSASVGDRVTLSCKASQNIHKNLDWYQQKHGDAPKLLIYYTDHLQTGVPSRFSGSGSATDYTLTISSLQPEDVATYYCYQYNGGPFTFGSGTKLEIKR | f
15D6 rat anti-DLL4 monoclonal antibody (antibody, rat IgG2a, V domains shown, rat IgG2a/K hybridoma mAb; also called MC13-15D6.1G7) VH: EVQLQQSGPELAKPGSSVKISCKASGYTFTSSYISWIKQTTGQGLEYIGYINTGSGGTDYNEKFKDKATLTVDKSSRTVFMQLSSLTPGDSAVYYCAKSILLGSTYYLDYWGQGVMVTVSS VL: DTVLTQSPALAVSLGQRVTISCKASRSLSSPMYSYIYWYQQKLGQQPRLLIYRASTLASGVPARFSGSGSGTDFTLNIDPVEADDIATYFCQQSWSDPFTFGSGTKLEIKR | f
1A11 rat anti-DLL4 monoclonal antibody (antibody, rat IgG1, V domains shown, rat IgG1/K hybridoma mAb; also called MC13-1A11.2E1; 1A11 (rat mAb)) VH: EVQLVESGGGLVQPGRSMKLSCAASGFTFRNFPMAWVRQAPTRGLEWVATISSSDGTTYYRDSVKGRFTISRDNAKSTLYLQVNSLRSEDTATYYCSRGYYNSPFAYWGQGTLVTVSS VL: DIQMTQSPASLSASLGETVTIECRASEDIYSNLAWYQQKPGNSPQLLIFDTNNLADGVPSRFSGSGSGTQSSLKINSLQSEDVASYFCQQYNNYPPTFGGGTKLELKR | f

Could you now look at the following binder, please?
[in] Take the binder 32C7 rat anti-DLL4 monoclonal antibody (antibody, rat IgG2a, V domains shown, rat IgG2a/k hybridoma mAb; also called MC10-32C7.5A4) VH: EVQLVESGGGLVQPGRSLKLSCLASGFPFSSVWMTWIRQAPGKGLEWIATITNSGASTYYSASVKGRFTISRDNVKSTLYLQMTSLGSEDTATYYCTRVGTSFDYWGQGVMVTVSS VL: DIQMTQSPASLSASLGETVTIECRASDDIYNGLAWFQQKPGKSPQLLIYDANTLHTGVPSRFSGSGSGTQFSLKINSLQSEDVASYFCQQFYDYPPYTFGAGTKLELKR and say whether its kon is less than 70000 M⁻¹ s⁻¹.
[out] t
